Documented Kd across a set of binders
- test_system: T1, human MSLN-FL-his protein (human, UniProt Q13421 296-580)
- T1 construct: made in HEK293E cells, purified on nickel column; also called hMSLN-FL-his; human MSLN full-length protein; not shown: His tag
- T1 sequence (Q13421 other isoform, or with tags, fused parts or gaps): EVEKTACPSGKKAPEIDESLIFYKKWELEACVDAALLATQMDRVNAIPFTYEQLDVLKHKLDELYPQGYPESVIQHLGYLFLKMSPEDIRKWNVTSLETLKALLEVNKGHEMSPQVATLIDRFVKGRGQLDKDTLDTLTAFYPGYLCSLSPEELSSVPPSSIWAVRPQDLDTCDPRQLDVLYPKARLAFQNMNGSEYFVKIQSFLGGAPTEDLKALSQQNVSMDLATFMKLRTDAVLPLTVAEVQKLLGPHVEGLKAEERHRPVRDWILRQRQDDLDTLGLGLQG
- test_protocol: SPR (Biacore), antibody captured on Protein A chip;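 note: flow cell at 25 °C, antigen injected for 240 s at five concentrations from 200 nM downward, dissociation followed up to 600 s, double-referenced, fitted with Langmuir 1:1 model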
Provide only the numeric value, understood in nM.

Take a look at these entries with their results.
{"binder": "S009-F8-29.1 (antibody, human IgG1, kappa, V domains shown, human-murine chimeric antibody, human IgG1/kappa constant regions) VH: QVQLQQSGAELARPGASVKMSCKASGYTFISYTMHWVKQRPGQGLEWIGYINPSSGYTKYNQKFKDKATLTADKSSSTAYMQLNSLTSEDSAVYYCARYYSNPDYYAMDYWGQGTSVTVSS VL: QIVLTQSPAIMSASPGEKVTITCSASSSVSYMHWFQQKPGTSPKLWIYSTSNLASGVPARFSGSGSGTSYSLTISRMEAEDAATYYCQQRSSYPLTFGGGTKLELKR", "measurement_kind": "Kd", "val": 27.4}
{"binder": "S009-F7.30.5 (antibody, human IgG1, kappa, V domains shown, human-murine chimeric antibody, human IgG1/kappa constant regions) VH: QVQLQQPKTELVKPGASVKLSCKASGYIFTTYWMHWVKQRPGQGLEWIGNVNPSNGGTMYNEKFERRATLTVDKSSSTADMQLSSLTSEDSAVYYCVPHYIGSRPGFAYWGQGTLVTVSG VL: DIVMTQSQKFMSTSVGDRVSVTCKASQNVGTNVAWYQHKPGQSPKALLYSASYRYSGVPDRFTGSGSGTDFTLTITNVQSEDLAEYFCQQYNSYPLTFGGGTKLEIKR", "measurement_kind": "Kd", "val": 3.83}

Please find the next binder below.
Query block: // Kd lookup, key: S009-F7.69.8 (antibody, human IgG1, kappa, V domains shown, human-murine chimeric antibody, human IgG1/kappa constant regions) VH: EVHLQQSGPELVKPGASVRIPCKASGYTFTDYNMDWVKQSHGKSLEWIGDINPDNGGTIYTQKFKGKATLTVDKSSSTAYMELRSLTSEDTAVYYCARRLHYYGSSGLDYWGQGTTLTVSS VL: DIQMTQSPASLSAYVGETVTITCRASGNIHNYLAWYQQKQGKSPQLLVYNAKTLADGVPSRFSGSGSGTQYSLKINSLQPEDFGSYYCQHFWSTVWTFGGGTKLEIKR
Result block: 6.51
